- Assay target: PI3K alpha (Homo sapiens)
- Construct: p85(iSH2) fusion partner (see partner chain) (N); His tag (C); Tn5 (Trichoplusia ni) or TiniPro insect cells
- Test method notes: PI3K alpha kinase assay (Kinase-Glo luminescence)
Readout: pIC50
On this scale, pIC50 is minus log10 of a concentration expressed in M (mol/L).

Consider the worked cases shown below.
Compound: COCCn1nc(C)c(-n2c(=O)n(C)c3cnc4ccc(-c5ccc(-n6cccn6)cc5)cc4c32)c1C [Example 51.5]
pIC50: 6.96

Compound: CCn1cc(-n2c(=O)n(C)c3cnc4ccc(-c5cnc(N(C)C)nc5)cc4c32)c(C)n1 [Example 6.4]
pIC50: 7.22

Compound: Cc1nn(C(C)C)cc1-n1c(=O)n(C)c2cnc3ccc(-c4cnc(N)c(CO)c4)cc3c21 [Example 169.1]
pIC50: 7.62

Compound: Cc1ccc(-c2ccc3ncc4c(c3c2)n(-c2cc(C)nn2C)c(=O)n4C)cn1 [Example 7.1]
pIC50: 7.34

Compound: Cc1nn(C)cc1-n1c(=O)n(C)c2cnc3ccc(-c4ccc(OCCOCc5ccccc5)nc4)cc3c21 [Example 19]
pIC50: 6.32

Compound: CNc1cc(-c2ccc3ncc4c(c3c2)n(-c2cn(C)nc2Cl)c(=O)n4C)cnc1COC [Example 160.1]
pIC50: 7.85

# ---- query compound ----
Field: pIC50 (PI3K alpha (Homo sapiens)). Entry: CCNc1cc(-c2ccc3ncc4c(c3c2)n(-c2c(C)noc2C)c(=O)n4C)cnc1F [Example 154.2]
6.76

====

Catalogue of compounds with associated IC50
- Tested on: PKB Ser473 phosphorylation in Rat1-myr-HA-p110 alpha cells
- Test method notes: Reverse protein array assay, PKB Ser473 phosphorylation in Rat1-myr-p110 alpha cells
- Type: cell-based
- Condition details: 0.5 h, pAkt Ser473, 30 minutes compound incubation, read-out: p-PKB IC50
Response body: numeric value in nM, unit text excluded.

Guide cases for IC50, answers given:
Compound: COc1ncc(-c2ccc3ncc4c(c3c2)n(-c2cn(C)nc2C)c(=O)n4C)cc1C(N)=O [Example 125.2]
Assay target: PKB Ser473 phosphorylation in Rat1-myr-HA-p110 alpha cells
IC50 / nM: 82
--
Compound: Cc1nn(C)cc1-n1c(=O)n(C)c2cnc3ccc(-c4ccc(N5CCN(C)CC5)nc4)cc3c21 [Example 96]
Assay target: PKB Ser473 phosphorylation in Rat1-myr-HA-p110 alpha cells
IC50 / nM: 12
--
Compound: COc1ncc(-c2ccc3ncc4c(c3c2)n(-c2cn(C)nc2C)c(=O)n4C)cn1 [Example 17.2]
Assay target: PKB Ser473 phosphorylation in Rat1-myr-HA-p110 alpha cells
IC50 / nM: 19

Reported IC50 for CCN(C)C(=O)Cn1cc(-n2c(=O)n(C)c3cnc4ccc(-c5ccccc5)cc4c32)c(C)n1 [Example 135] : what is it?
26

Given Cc1ncc(-c2ccc3ncc4c(c3c2)n(-c2cn(C)nc2C)c(=O)n4C)cc1O [Example 185.1] , state its recorded IC50.
13

Entry CCn1c(=O)n(-c2cn(C)nc2C)c2c3nc(-c4ccc(OC)c(OC)c4)ccc3ncc21 [Example 251] : reported IC50 = ?
32

Quick one: IC50 for Cc1nn(C)cc1-n1c(=O)n(C)c2cnc3ccc(-c4ccc(OCCO)nc4)cc3c21 [Example 107] ?
85

====

- Assay target: PI3K delta (Homo sapiens, UniProt O00329)
- Construct: for the full-length p110-d subunit are generated and fused by overlapping PCR; p85(iSH2) fusion partner (see partner chain) (N); His tag (C); Tn5 (Trichoplusia ni) or TiniPro insect cells
- Sequence (O00329 with tags, fused parts or gaps limits assumed): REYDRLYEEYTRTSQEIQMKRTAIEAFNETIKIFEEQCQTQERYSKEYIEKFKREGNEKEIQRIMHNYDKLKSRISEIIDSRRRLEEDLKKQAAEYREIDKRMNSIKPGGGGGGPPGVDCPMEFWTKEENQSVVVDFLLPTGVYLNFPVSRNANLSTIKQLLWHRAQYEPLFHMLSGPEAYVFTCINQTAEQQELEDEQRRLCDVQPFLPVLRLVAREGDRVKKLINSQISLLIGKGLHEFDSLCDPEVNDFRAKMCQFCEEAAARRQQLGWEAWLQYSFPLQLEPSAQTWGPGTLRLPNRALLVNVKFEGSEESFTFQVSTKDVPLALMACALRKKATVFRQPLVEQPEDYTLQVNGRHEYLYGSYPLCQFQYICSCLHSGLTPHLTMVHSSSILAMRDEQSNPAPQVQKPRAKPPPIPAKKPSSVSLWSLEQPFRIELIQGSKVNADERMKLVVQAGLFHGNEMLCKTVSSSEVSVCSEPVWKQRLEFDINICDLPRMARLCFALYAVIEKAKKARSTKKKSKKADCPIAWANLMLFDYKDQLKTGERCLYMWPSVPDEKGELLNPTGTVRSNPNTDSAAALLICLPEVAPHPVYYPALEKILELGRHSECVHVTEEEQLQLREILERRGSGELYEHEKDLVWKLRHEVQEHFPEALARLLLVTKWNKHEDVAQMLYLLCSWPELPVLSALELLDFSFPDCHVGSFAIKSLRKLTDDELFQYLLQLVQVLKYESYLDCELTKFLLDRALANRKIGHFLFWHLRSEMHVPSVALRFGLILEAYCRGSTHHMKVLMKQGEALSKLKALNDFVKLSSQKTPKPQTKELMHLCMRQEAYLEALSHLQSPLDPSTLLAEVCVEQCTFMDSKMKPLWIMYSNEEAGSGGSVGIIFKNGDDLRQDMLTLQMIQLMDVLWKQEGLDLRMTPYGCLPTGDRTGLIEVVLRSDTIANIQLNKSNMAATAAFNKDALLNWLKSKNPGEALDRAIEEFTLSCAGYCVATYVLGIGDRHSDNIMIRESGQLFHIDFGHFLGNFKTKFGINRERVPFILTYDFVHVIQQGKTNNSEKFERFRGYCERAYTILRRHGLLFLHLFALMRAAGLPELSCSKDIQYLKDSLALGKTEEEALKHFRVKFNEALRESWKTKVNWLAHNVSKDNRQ
- Test method notes: PI3K delta kinase assay (Kinase-Glo luminescence)
pIC50: −log10 of the molar value.
Hi, to clarify the labels: Y covers pIC50 from 8 upward, N covers anything below 8.

Molecular string: CCN(C)C(=O)Cn1cc(-n2c(=O)n(C)c3cnc4ccc(-c5cncc(OC(C)C)c5)cc4c32)c(C)n1
Label class: N
//
Molecular string: CCOc1ccc(-c2ccc3ncc4c(c3c2)n(-c2c(C)nn(C)c2C)c(=O)n4C)cc1OC
Label class: N

Dear colleague, could you confirm whether "Cc1cc(-n2c(=O)n(C)c3cnc4ccc(-c5ccc(N(C)C)nc5)cc4c32)n(C)n1" has pIC50 at or above 8?
N

Does the molecule "COc1ncc(-c2ccc3ncc4c(c3c2)n(-c2cn(C)nc2C)c(=O)n4C)cc1[N+](=O)[O-]" have recorded pIC50 that is 8 or more?
N

Does pIC50 meet or surpass 8 for "CNc1ncc(-c2ccc3ncc4c(c3c2)n(-c2cn(C)nc2C)c(=O)n4C)cc1COC" ?
Y

Say whether "Cc1cnn(C)c1-n1c(=O)n(C)c2cnc3ccc(-c4cncc(OC(C)C)c4)cc3c21" shows pIC50 of 8 or more.
N

pIC50 >= 8 for "Cc1nn(C)cc1-n1c(=O)n(C)c2cnc3ccc(-c4ccc(OCCCO)nc4)cc3c21" ?
N

Tell me whether pIC50 is at least 8 here: "CCN(CC)C(=O)Cn1cc(-n2c(=O)n(C)c3cnc4ccc(-c5ccc(C)nc5)cc4c32)c(C)n1"
N

pIC50 >= 8 for "COc1ccc(-c2ccc3ncc4c(c3n2)n(-c2cc(C)nn2C)c(=O)n4C)cc1OC" ?
Y

# bool: pIC50 of "Cc1nn(C)cc1-n1c(=O)n(C)c2cnc3ccc(-c4ccc(N5CC[C@H](O)C5)nc4)cc3c21" >= 8
N

====

Recorded pIC50 values for a group of compounds are listed next.
- Assay target: PI3K beta (Homo sapiens, UniProt P42338)
- Construct: for the full-length p110-b subunit are generated and fused by overlapping PCR; p85(iSH2) fusion partner (see partner chain) (N); His tag (C); Tn5 (Trichoplusia ni) or TiniPro insect cells
- Sequence (P42338 with tags, fused parts or gaps limits assumed): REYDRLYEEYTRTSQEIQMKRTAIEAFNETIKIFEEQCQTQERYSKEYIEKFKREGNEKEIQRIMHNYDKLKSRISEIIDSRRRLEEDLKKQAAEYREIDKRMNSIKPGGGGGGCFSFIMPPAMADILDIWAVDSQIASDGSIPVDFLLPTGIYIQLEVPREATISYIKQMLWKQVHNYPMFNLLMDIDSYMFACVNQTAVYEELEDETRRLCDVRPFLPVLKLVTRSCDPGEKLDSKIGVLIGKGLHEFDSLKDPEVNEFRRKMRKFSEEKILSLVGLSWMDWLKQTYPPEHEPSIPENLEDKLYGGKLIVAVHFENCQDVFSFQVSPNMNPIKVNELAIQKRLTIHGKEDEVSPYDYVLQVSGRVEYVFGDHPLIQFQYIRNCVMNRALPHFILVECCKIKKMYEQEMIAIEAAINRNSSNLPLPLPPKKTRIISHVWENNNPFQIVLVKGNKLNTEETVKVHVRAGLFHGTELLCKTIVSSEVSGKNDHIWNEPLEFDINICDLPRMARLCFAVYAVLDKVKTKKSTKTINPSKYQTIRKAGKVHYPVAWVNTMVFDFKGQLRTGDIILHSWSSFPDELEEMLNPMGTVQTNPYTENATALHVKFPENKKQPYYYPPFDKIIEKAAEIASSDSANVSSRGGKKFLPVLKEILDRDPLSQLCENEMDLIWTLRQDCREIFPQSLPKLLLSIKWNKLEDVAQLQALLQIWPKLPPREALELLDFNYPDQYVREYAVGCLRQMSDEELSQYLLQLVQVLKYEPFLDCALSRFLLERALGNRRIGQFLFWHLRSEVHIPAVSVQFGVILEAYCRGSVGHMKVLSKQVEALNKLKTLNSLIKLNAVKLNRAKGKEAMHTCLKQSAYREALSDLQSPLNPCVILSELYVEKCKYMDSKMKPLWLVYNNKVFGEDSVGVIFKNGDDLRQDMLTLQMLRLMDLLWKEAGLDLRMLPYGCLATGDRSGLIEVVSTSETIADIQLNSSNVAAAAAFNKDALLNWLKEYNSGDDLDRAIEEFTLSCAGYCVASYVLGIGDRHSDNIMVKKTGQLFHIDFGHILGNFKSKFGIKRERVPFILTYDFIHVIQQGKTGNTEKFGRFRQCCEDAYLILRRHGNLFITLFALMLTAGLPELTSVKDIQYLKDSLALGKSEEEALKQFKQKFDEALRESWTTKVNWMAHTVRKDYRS
- Test method notes: PI3K beta kinase assay (Kinase-Glo luminescence)
- Method: In a more preferred assay, the kinase reaction is performed in a final volume of 10 μL per well of a low volume non binding CORNING, 384 well black plate (Cat. No. #3676). The final concentrations of ATP and phosphatidyl inositol (PI) in the assay are 1 μM and 10 μg/mL respectively. […] IC50 is determined by a four parameter curve fitting routine that comes along with “excel fit”. […] Alternatively, IC50 values are calculated using idbsXLfit model 204, which is a 4 parameter logistic model.
Reminder that pIC50 means the negative base-10 logarithm of the concentration expressed in mol/L.

// known answers, use as guide
Compound: Cc1nn(C)cc1-n1c(=O)n(C)c2cnc3ccc(-c4cnc(CO)c(Cl)c4)cc3c21 [Example 238]
pIC50: 6.99

Compound: CNc1ccc(-c2ccc3ncc4c(c3c2)n(-c2cn(C(C)C)nc2C)c(=S)n4C)cn1 [Example 241]
pIC50: 6.74

Compound: Cc1nn(C)c(C)c1-n1c(=O)n(C)c2cnc3ccc(-c4cnc(N)nc4)cc3c21 [Example 81.2]
pIC50: 6.55

Compound: CNc1ccc(-c2ccc3ncc4c(c3c2)n(-c2cn(C)nc2C)c(=O)n4C)cn1 [Example 118.2]
pIC50: 7.09

Compound: COc1ncc(-c2ccc3ncc4c(c3c2)n(-c2cn(C)nc2C)c(=O)n4C)cn1 [Example 17.2]
pIC50: 6.69

Given the entry CCn1cc(-n2c(=O)n(C)c3cnc4ccc(-c5ccc(N(C)C)nc5)cc4c32)c(C)n1 [Example 4.2] , report its measured pIC50.
6.65

Quick one: pIC50 of CNc1ccc(-c2ccc3ncc4c(c3c2)n(-c2cn(CC(=O)N(C)C)nc2C)c(=O)n4C)cn1 [Example 118.3] ?
6.16

Which pIC50 is reported for this compound? COc1ncc(-c2ccc3ncc4c(c3c2)n(-c2cn(C)nc2C)c(=O)n4C)cc1NC(C)=O [Example 64]
6.49

====

Entries and their log10(IC50)
- Assay target: PI3K alpha (Homo sapiens, UniProt P42336)
- Construct: p85(iSH2) fusion partner (see partner chain) (N); His tag (C); Tn5 (Trichoplusia ni) or TiniPro insect cells
- Sequence (P42336 with tags, fused parts or gaps limits assumed): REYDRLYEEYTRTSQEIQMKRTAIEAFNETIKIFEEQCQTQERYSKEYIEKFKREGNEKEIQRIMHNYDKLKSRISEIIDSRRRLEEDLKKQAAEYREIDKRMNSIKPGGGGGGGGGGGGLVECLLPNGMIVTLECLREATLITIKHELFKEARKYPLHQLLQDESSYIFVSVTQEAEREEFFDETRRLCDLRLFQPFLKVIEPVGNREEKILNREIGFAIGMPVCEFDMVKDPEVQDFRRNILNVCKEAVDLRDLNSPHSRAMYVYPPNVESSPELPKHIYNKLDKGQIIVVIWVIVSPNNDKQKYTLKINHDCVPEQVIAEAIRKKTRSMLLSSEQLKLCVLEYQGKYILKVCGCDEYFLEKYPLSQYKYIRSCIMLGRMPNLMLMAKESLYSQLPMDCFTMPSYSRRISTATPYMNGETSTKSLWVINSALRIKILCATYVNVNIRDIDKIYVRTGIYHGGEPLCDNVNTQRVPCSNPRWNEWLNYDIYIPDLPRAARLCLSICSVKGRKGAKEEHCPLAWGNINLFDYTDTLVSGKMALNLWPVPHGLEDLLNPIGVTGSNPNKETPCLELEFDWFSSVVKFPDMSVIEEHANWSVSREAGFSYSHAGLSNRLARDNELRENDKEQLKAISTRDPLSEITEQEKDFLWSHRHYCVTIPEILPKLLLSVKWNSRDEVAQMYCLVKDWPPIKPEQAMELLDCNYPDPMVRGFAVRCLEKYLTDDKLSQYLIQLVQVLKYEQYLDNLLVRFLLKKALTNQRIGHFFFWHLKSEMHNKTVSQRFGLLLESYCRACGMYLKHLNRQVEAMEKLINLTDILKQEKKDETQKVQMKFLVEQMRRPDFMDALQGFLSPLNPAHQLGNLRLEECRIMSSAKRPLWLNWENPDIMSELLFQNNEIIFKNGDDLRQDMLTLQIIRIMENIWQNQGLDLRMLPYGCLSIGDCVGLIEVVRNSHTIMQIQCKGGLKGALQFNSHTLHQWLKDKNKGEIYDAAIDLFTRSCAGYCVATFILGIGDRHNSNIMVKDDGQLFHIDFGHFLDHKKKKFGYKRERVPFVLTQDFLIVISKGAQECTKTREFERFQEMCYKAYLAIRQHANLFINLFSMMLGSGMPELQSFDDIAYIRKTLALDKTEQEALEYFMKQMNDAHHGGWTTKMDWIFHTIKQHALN
- Test method notes: PI3K alpha kinase assay (Kinase-Glo luminescence)
// stored as log10 of IC50 expressed in nM

Please review the following examples before continuing.
Compound: CCOc1ccc(-c2ccc3ncc4[nH]c(=O)n(-c5cn(CC(=O)N6CCN(C)CC6)nc5C)c4c3c2)cn1 [Example 133]
Readout: log10(IC50)
Experimental result: 2.97
//
Compound: COC(=O)c1ccc(-c2ccc3ncc4c(c3c2)n(-c2cn(C)nc2C)c(=O)n4C)cn1 [Example 100]
Readout: log10(IC50)
Experimental result: 1.26

Look at this compound and give its reported log10(IC50). CCOCc1cc(-c2ccc3ncc4c(c3c2)n(-c2cn(C)nc2C)c(=O)n4C)cnc1N [Example 166.1]
0.95

Can you look up the measured log10(IC50) of Cc1nn(CC(=O)N(C)C)cc1-n1c(=O)n(C)c2cnc3ccc(-c4ccc(-n5cccn5)cc4)cc3c21 [Example 51.2] for me?
0.90

I'd like to know its log10(IC50). The compound in question is COCCn1nc(C)c(-n2c(=O)n(C)c3cnc4ccc(-c5cncc(NC(C)C)c5)cc4c32)c1C [Example 177.2]
1.85

Report log10(IC50) for Cc1nn(C)c(C)c1-n1c(=O)n(C)c2cnc3ccc(-c4cccnc4)cc3c21 [Example 10.1] please.
2.13

meta.source: patent US20140005163A1
